Entry source: PubChem BioAssay AID2060613

Tested on: 233499-124-R-J3-PDC complex spheroid viability;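 note: spheroids exposed to the drug combinations for seven days; percent viability relative to DMSO vehicle control wells taken as 100%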
Experiment: Anticancer human tumor 233499-124-R-J3-PDC patient-derived colon adenocarcinoma cell line growth inhibition [CLK]; active = viability on the fitted dose curve at most 10% of control; inactive = the rest
Details: second compound 3.16 µM; first compound 0.000949 µM
Pick from 1.0 for active, 0.0 for inactive when you respond.

Would you please look over these solved cases?
MOLECULE	SYSTEM	CLASS_NAME
C=CC(=O)Nc1cc(Nc2nccc(-c3cn(C)c4ccccc34)n2)c(OC)cc1N(C)CCN(C)C + CNC(=O)c1ccc(Nc2nc(OC3CCCC3)c3c(-c4ccc5nc(C)oc5c4)c[nH]c3n2)c(OC)c1	233499-124-R-J3-PDC complex spheroid viability	0.0
CC(C)CC(NC(=O)C(Cc1ccccc1)NC(=O)c1cnccn1)B(O)O (centres undefined) + CNC(=O)c1ccc(Nc2nc(OC3CCCC3)c3c(-c4ccc5nc(C)oc5c4)c[nH]c3n2)c(OC)c1	233499-124-R-J3-PDC complex spheroid viability	0.0
CC(C)CC(NC(=O)C(Cc1ccccc1)NC(=O)c1cnccn1)B(O)O (centres undefined) + CN1CCN(c2cc(C(=O)Nc3cc4cc(-c5cnn(C)c5)ccc4cn3)ccn2)CC1	233499-124-R-J3-PDC complex spheroid viability	1.0

### Prompt Call for entry C=CC(=O)Nc1cc(Nc2nccc(-c3cn(C)c4ccccc34)n2)c(OC)cc1N(C)CCN(C)C + CN1CCN(c2cc(C(=O)Nc3cc4cc(-c5cnn(C)c5)ccc4cn3)ccn2)CC1 :
### Response 1.0
